experiment: qHTS for Inhibitors of human tyrosyl-DNA phosphodiesterase 1 (TDP1): qHTS in cells in absence of CPT; conditions: DT40 Tdp1-/- hTDP1 cells, no CPT, ATP luminescence, 48 h; also: nearly all actives have a fitted effect of over 55% in size; also: potency is read from the fitted curve at half-maximal effect
About 64,000 (15%) of roughly 420,000 compounds were called active. Another 27% or so got no clear call; they are omitted. These entries were drawn from the full list.

compound: O=C(CN1CCOCC1)Nc1cccc([N+](=O)[O-])c1
Potency: inactive

compound: Cn1c(SCC(=O)Nc2cccc(O)c2)nnc1-c1ccc(S(=O)(=O)N2CCOCC2)cc1
Potency: inactive

compound: O=C(CN1C(=O)NC2(CCOc3ccccc32)C1=O)Nc1cccc([N+](=O)[O-])c1 (configuration not stated)
Potency: 20.6 µM (active)

compound: CCNS(=O)(=O)c1ccc(NC(=O)CSc2nc(-c3ccco3)cc(C(F)(F)F)n2)cc1
Potency: 7.31 µM (active)

compound: O=C(CN1C(=O)NC2(CCCCCC2)C1=O)NC1CC1
Potency: inactive

compound: Cc1cc(C(F)(F)F)nn1-c1nc(-c2ccco2)cc(C(F)(F)F)n1
Potency: inactive

compound: Cc1cc(C(F)(F)F)nc(SCC(=O)Nc2nccs2)n1
Potency: inactive

compound: CC(C)c1nc(SCC(=O)NC(=O)NC(C)(C)C)n[nH]1
Potency: inactive

compound: C=C(C)CNC(=O)c1ccc(OC2CCN(C(=O)COC)CC2)cc1
Potency: inactive

compound: O=C(CN1CCSCC1)N/N=C/c1ccc(F)cc1F
Potency: inactive

compound: O=C(CN1C(=O)NC2(CCCCCC2)C1=O)Nc1ccc([N+](=O)[O-])cc1
Potency: 18.4 µM (active)

compound: O=C(CSc1nc(-c2ccco2)cc(C(F)(F)F)n1)NCc1cccs1
Potency: inactive

compound: O=C(CSc1ccc(-c2ccccc2)nn1)NCC1CCCO1 (configuration not stated)
Potency: inactive

compound: O=C(NCCS(=O)(=O)NCc1ccc(F)cc1)c1ccccc1
Potency: inactive

compound: O=C(CN1C(=O)NC2(CCCC2)C1=O)Nc1ccc(F)c(F)c1F
Potency: inactive

compound: COc1ccc(N2C(=O)C3CCCN3C2c2cc(OC)c(OC)cc2OC)cc1 (configuration not stated)
Potency: inactive

compound: CC(C)(C)NC(=O)CSc1nc(-c2ccc(F)cc2)cc(C(F)(F)F)n1
Potency: 18.4 µM (active)

compound: Cc1cccc(NC(=O)CSc2nc(-c3ccco3)cc(C(F)(F)F)n2)c1C
Potency: 9.2 µM (active)

compound: COc1cccc(NC(=O)Cn2c3ccc(F)cc3c3nc4n(c(=O)c32)CCS4)c1
Potency: inactive

compound: O=C(CN1CCN(c2ccccn2)CC1)NC1CCCCC1
Potency: inactive

compound: COCC(=O)Nc1c(I)c(C(=O)NCC(O)CO)c(I)c(C(=O)N(C)CC(O)CO)c1I (configuration not stated)
Potency: inactive

compound: Cc1cccc(NC(=O)Cn2c(C(F)(F)F)nc3ccccc32)c1C
Potency: inactive

====

experiment: qHTS for Inhibitors of human tyrosyl-DNA phosphodiesterase 1 (TDP1): qHTS in cells in absence of CPT; details: DT40 Tdp1-/- hTDP1 cells, no CPT, ATP luminescence, 48 h; also: nearly all actives have a fitted effect of over 55% in size
The whole screen tested about 420,000 compounds, of which about 64,000 (15%) were called active. Another 27% or so got no clear call; they are omitted. Calls come from the whole dose curve; as a rule, active = well fitted inhibition curve with a large enough effect; inconclusive = small, poorly fitted or top-dose-only effect; inactive = flat fitted curve, though single readings scatter. Not all results are given here.
Labels: 1 for active, -1 for inactive

compound: COc1ccc2ccccc2c1CNCc1ccccn1
answer label: -1
--
compound: CC(=O)Nc1ccc(Nc2ncnc3c2nnn3Cc2ccccc2Cl)cc1
answer label: -1
--
compound: Cc1ccc(NCc2n[nH]c(=S)n2-c2ccccc2)cc1Cl
answer label: -1
--
compound: S=c1[nH]nc(CSCc2ccc(Cl)cc2Cl)n1-c1ccccc1
answer label: 1
--
compound: COc1ccc(NC(=O)c2sc3nc(-c4cc5cccc(OC)c5oc4=O)[nH]c(=O)c3c2C)cc1
answer label: -1
--
compound: C=CCN(CC=C)S(=O)(=O)c1ccc(C(=O)Nc2sc3c(c2C(N)=O)CCCCC3)cc1
answer label: 1
--
compound: COCCN(CCOC)S(=O)(=O)c1ccc(C(=O)Nc2nc3c(s2)CCc2ccccc2-3)cc1
answer label: 1
--
compound: C=CCN(CC=C)S(=O)(=O)c1ccc(C(=O)Nc2nc3c(s2)CCc2ccccc2-3)cc1
answer label: 1
--
compound: COc1ccccc1NC(=O)c1c(Br)cnn1C
answer label: -1
--
compound: COCc1nnc(NC(=O)c2ccc3c(c2)OCO3)s1
answer label: -1
--
compound: CC(CC(=O)C1C(C)C=CCC1(C)C)NNC(N)=O (configuration not stated)
answer label: -1
--
compound: CCOC(=O)N1CCN(C(=O)C(=O)Nc2sc3c(c2C#N)CC(C)(C)OC3)CC1
answer label: -1
--
compound: O=C(Nc1ccc2c(c1)OCCO2)C1c2ccccc2OCC(=O)N1Cc1ccccn1 (configuration not stated)
answer label: -1
--
compound: CCOc1ccccc1NC(=O)C1CCC(CNc2c(N3CCOCC3)c(=O)c2=O)CC1 (configuration not stated)
answer label: -1
--
compound: O=C(COC(=O)CNC(=O)C1CCCCC1)Nc1cccc(F)c1
answer label: -1
--
compound: NC(=O)c1c(NC(=O)c2ccccc2)sc2c1CCCC2
answer label: -1
--
compound: Cc1ccc(Cn2c(C)c(C(=O)NCc3ccccc3C(F)(F)F)sc2=O)cc1
answer label: -1
--
compound: COC(=O)c1ccc(S(=O)(=O)N(CCO)Cc2ccccc2)n1C
answer label: -1
--
compound: C=C(C)C1CC=C(CO)CC1 (configuration not stated)
answer label: -1
--
compound: CC1CN(c2nc(Nc3ccccc3)nc(N)c2[N+](=O)[O-])CC(C)O1 (configuration not stated)
answer label: 1
--
compound: CCN(CC)c1ccc(NC(=O)C2CCC(CNc3c(N4CCCC4)c(=O)c3=O)CC2)c(C)c1 (configuration not stated)
answer label: 1
--
compound: COc1cccc(OC)c1C(=O)Nc1sc2c(c1C(N)=O)CCCC2
answer label: -1

====

experiment: qHTS for Inhibitors of human tyrosyl-DNA phosphodiesterase 1 (TDP1): qHTS in cells in absence of CPT; conditions: DT40 Tdp1-/- hTDP1 cells, no CPT, ATP luminescence, 48 h; also: nearly all actives have a fitted effect of over 55% in size
Among all 420,000 compounds or so, about 64,000 (15%) were called active. Not shown: some 27% with an inconclusive outcome. The call rests on the fitted dose curve; in most records, active means well fitted inhibition curve with a large enough effect; inconclusive means small, poorly fitted or top-dose-only effect; inactive means flat fitted curve, though single readings scatter. The list is a sample of the results.
Labels: active, inactive

compound: Cc1ccc2c(c1)NCC(C(=O)NC1CCC(C)CC1)O2 (stereo unspecified)
answer label: inactive
//
compound: CSc1ccccc1NC(=O)COC(=O)CCCOc1ccc(C)cc1
answer label: inactive
//
compound: COc1cc([N+](=O)[O-])ccc1NC(=O)CN1CCCC1
answer label: inactive
//
compound: Cc1ccc(S(=O)(=O)N2CCN(C)CC2)cc1
answer label: inactive
//
compound: CCN(CC)c1ccc(C(=O)c2cnc(/N=C/N(C)C)s2)cc1
answer label: inactive
//
compound: Cc1ccc(C)c(N2CCN(S(=O)(=O)c3ccc4c(c3)C(C(C)C)C(=O)N4)CC2)c1 (stereo unspecified)
answer label: active

====

Test: qHTS for Inhibitors of human tyrosyl-DNA phosphodiesterase 1 (TDP1): qHTS in cells in absence of CPT; also: nearly all actives have a fitted effect of over 55% in size
Settings: DT40 Tdp1-/- hTDP1 cells, no CPT, ATP luminescence, 48 h
Protocol: Human tyrosyl-DNA phosphodiesterase 1 (TDP1) is a novel repair gene, and we propose to use it as a new target for anticancer drug development. […] For the primary screen, Tdp1-/-;hTDP1 cells will be exposed to small molecules in the presence or absence of CPT, and their growth kinetics will be evaluated after 48 hours by measuring ATP activity. […] The hit compounds will then be evaluated in the presence or absence of CPT using Tdp1-/- cells. […]
In all, about 420,000 compounds went through this assay and about 64,000 (15%) were called active. Inconclusive results (about 27%) are left out. The call rests on the fitted dose curve; in most records, active means well fitted inhibition curve with a large enough effect; inconclusive means small, poorly fitted or top-dose-only effect; inactive means flat fitted curve, though single readings scatter. Only a sample is shown.
Labels: active, inactive

compound: Cc1cc(C)cc(NC(=O)C2CCCN(S(=O)(=O)c3ccc4[nH]c(=O)ccc4c3)C2)c1 (stereo not given)
answer label: inactive
--
compound: CC(=O)N1c2ccc(S(=O)(=O)N3CCCC(C(=O)Nc4cccc(Cl)c4)C3)cc2CC1C (stereo not given)
answer label: active
--
compound: CCc1cccc(NC(=O)C2CCCN(S(=O)(=O)c3ccc4[nH]c(=O)ccc4c3)C2)c1 (stereo not given)
answer label: inactive
--
compound: CC(=O)N1CCCc2ccc(NS(=O)(=O)c3ccc(F)cc3F)cc21
answer label: inactive
--
compound: CCOC(=O)C1CCCN(S(=O)(=O)c2ccc(-n3cnnn3)c(C)c2)C1 (stereo not given)
answer label: inactive

====

test: qHTS for Inhibitors of human tyrosyl-DNA phosphodiesterase 1 (TDP1): qHTS in cells in absence of CPT; settings: DT40 Tdp1-/- hTDP1 cells, no CPT, ATP luminescence, 48 h; also: nearly all actives have a fitted effect of over 55% in size
In all, about 420,000 compounds went through this assay and about 64,000 (15%) were called active. Inconclusive results (about 27%) are left out. Calls come from the whole dose curve; as a rule, active = well fitted inhibition curve with a large enough effect; inconclusive = small, poorly fitted or top-dose-only effect; inactive = flat fitted curve, though single readings scatter. These entries were drawn from the full list.
Labels: active, inactive

compound: O=C(COC(=O)c1ccc(S(=O)(=O)N2CCc3ccccc3C2)cc1)NC(=O)NCc1ccco1
answer label: inactive

compound: CCOc1ccccc1C(=O)Nc1ccc(S(=O)(=O)N2CCCCC2c2cccnc2)cc1 (centres undefined)
answer label: active

compound: CN(C)/C=C(/C(=O)c1ccccc1)S(=O)(=O)c1ccc(Cl)cc1
answer label: inactive

compound: CS(=O)(=O)N1CCC2(CC1)CN(Cc1cc(C(F)(F)F)cc(C(F)(F)F)c1)C2
answer label: inactive

compound: CCN1CCN(C(=O)N(Cc2ccc(Cl)cc2)S(=O)(=O)c2ccc(C)cc2)CC1
answer label: inactive

compound: O=C(CCc1ccc(O)cc1)NN=Cc1cc(Br)ccc1O
answer label: active

compound: COC(=O)CN(c1cccc(C(C)=O)c1)S(C)(=O)=O
answer label: inactive

compound: CCOc1ccc(S(=O)(=O)N2CCC(c3ccccc3)CC2)cc1C(=O)O
answer label: inactive

compound: CN1CCN(C(=O)/C(=C\c2cccs2)NC(=O)c2cccs2)CC1
answer label: inactive

compound: CCSc1sc(CC)cc1C=O
answer label: inactive

compound: CCNC(=O)N1c2ccccc2Sc2ccccc21
answer label: inactive

compound: CCOC(=O)Nc1ccc2c(c1)N(C(=O)CCN1CCN(CCO)CC1)c1ccccc1CC2
answer label: inactive

compound: C=CCc1cccc2cc(C(=O)NC3CCCC3)c(=O)oc12
answer label: inactive

compound: CC(C)NS(=O)(=O)c1ccc(NC(=O)c2cccnc2)cc1
answer label: inactive

compound: CCOc1ncccc1C(=O)Nc1ccc(S(=O)(=O)Nc2nc(C)cc(C)n2)cc1
answer label: inactive

compound: O=C(NCCC1CCCCN1S(=O)(=O)c1ccc(F)cc1)C(=O)NC1CC1 (centres undefined)
answer label: inactive

compound: O=C(CCN1C(=O)c2ccccc2C1=O)C1=NN[C@@H]2C(=O)N(c3ccc(F)cc3)C(=O)[C@H]12
answer label: inactive

compound: O=C(CCNC(=O)c1ccc([N+](=O)[O-])cc1)NC1CCCCC1
answer label: inactive

compound: CC[N+]1(CC)CC2=Cc3ccccc3CC2C1 (centres undefined)
answer label: inactive

compound: CCc1cc(=O)oc2cc(C)cc(OC(C)C(=O)O)c12 (centres undefined)
answer label: inactive

compound: O=C(N/N=C/c1ccoc1)c1ccc(Cl)cc1Cl
answer label: inactive

compound: CCOC(=O)C1(Cc2cccc(OC)c2)CCCN(S(=O)(=O)c2cccnc2)C1 (centres undefined)
answer label: inactive

compound: Cc1noc(C)c1C(=O)OC(C)C(=O)Nc1ccc2c(c1)OCO2 (centres undefined)
answer label: inactive

compound: CCCCn1c(N)c(N2CCOCC2)c(=O)n(CC(=O)NCCc2ccccc2)c1=O
answer label: inactive

compound: CCc1c(-c2ccc(F)cc2)ncn1Cc1cccc(-c2ccccc2)c1
answer label: active

compound: CCOC(=O)CNC(=O)CN1C(=O)CCSc2ccccc21
answer label: inactive

compound: CCN(CC(=O)Nc1c(F)cccc1F)C(=O)c1ccc(-c2ccc(C(C)=O)cc2)o1
answer label: inactive

compound: O=C(COC(=O)Cc1ccccc1F)NCCc1ccccc1
answer label: inactive

compound: O=C(Nc1ncc2c(n1)CC(c1ccco1)CC2=O)c1ccc(Cl)cc1 (centres undefined)
answer label: inactive

compound: CC(C)(C)C(=O)Nc1ccc(C(=O)N/N=C/c2ccccc2OC(=O)c2ccc(Cl)cc2Cl)cc1
answer label: active

compound: CCC1=C(C(=O)OC)C(c2cc(OC)ccc2OC)C(C#N)=C(N)O1 (centres undefined)
answer label: inactive

compound: CN(CC(O)COc1ccc(S(=O)(=O)N2CCOCC2)cc1Cl)C1CCCCC1 (centres undefined)
answer label: inactive

compound: Cc1cc(NS(=O)(=O)c2ccc(NC(=O)c3cccnc3)cc2)nc(C)n1
answer label: inactive

compound: Cn1nccc1C(=O)NCC1CCC2(CCN(Cc3c(O)ccc4ccccc34)CC2)O1 (centres undefined)
answer label: inactive

compound: O=S(=O)(c1ccc(F)cc1)N1CC=C(c2ccccc2)CC1
answer label: inactive

compound: O=C(CCC(=O)N/N=C/c1ccc(Br)o1)N/N=C/c1ccc(Br)o1
answer label: inactive

compound: N=c1n(CCc2ccccc2)c2ccccc2n1Cc1ccccc1F
answer label: active

compound: O=C(NCc1ccccc1Cl)C(=O)NCC1CCCN1S(=O)(=O)c1cccs1 (centres undefined)
answer label: inactive

compound: CCc1cccc(NC(=O)COC(=O)c2cc(=O)c3ccccc3o2)c1
answer label: inactive

compound: CSc1nsc(SC)c1NC(=O)OC1CCCCC1
answer label: inactive

compound: CS(=O)(=O)N1CCN(c2cccc(Cl)n2)CC1
answer label: inactive

compound: CSc1ccc(/C=N/NC(=O)c2cccc(Cl)c2)cc1
answer label: inactive

compound: CCS(=O)(=O)C1=NSC2=NC(=O)/C(=C\c3ccc(OS(=O)(=O)c4ccccc4)cc3)C(=N)N21
answer label: inactive

compound: Cc1ccc(CNC(=O)CC(NC(=O)c2ccccc2)c2ccccc2)cc1 (centres undefined)
answer label: inactive
